molecular target: CypD (Homo sapiens); assay: Chymotrypsin coupled prolyl-isomerase assay
Sequence (P30405 45-207): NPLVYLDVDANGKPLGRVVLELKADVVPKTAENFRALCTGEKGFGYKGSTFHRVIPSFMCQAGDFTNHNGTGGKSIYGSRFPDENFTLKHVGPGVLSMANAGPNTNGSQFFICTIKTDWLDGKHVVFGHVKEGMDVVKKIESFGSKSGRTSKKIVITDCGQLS
PROPERTY_MEASURED: IC50

compound="NC(=O)C1CCNC(=O)C=CC(=O)N2CCCC(CC(=O)NC(Cc3ccco3)C(=O)NCc3ccccc3CC(=O)N1)C2 (stereo not drawn)" result="> 100 µM"
compound="CC(C)CC1NC(=O)C2CCCN(C2)C(=O)C=CC(=O)NCCC(C(=O)NCCOCCN)NC(=O)Cc2ccccc2CNC1=O (stereo not drawn)" result="> 100 µM"
compound="NCCOCCNC(=O)C1CCNC(=O)C=CC(=O)N2CCCC(C2)C(=O)NC(Cc2ccco2)C(=O)NCc2ccccc2C(=O)N1 (stereo not drawn)" result="> 100 µM"
